Assayed system: UniProt Q5U7L7
Experiment: Ki app determination (Waley's method)
Test context: read-out: Ki app; VIM-2; means from three independent studies
Reported metric: Ki (µM)

>>> df
                                   compound  assayed_system  numeric_readout
0  NCCN[C@H]1CC[C@H](CC(=O)N[C@H]2Cc3cccc(C(=O)O)c3OB2O)CC1 [Tanibobactam, taniborbactam]  UniProt Q5U7L7            0.322

###

Assayed system: class A carbapenemase KPCs
Experiment: Ki app determination, range over enzymes
Test context: read-out: Ki app values, range
Reported metric: Ki

                                   compound            result
0  N[C@@H](C(=O)N1CC(Oc2ccc3c(c2C(=O)O)OB(O)CC3)C1)c1c[nH]cn1 [KSP-1007]  0.836 to 2.19 nM
